Target: human B1R receptor (hB1R) (Homo sapiens, UniProt P46663)
Construct: host or cells: CHO K1 cells
Sequence (P46663 whole entry): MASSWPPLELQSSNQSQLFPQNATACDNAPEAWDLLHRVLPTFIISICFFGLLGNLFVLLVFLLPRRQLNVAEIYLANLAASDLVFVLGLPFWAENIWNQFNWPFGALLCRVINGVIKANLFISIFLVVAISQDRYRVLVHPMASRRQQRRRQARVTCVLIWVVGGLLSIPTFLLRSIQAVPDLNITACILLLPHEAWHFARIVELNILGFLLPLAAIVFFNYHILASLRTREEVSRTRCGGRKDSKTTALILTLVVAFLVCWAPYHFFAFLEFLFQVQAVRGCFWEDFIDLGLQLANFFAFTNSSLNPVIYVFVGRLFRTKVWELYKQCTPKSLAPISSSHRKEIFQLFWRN
Assay: FLIPR Ca2+ assay on hB1R-transfected CHO K1 cells, antagonistic action
Assay type: cell-based
Conditions: CHO-K1, 10 μM test substance; agonist Lys-Des-Arg9-bradykinin 0.5 nM; % of maximum achievable inhibition; read-out: hB1R [10 μM] % inhibition
reported.endpoint: inhibition at 10 µM (%)
Report the figure in % without appending any unit label.

Query (compound): COc1cc(C)c(S(=O)(=O)N(C)CCOCC(=O)N(C)CCCC2CCC(c3ccccc3)(N3CCCC3)CC2)c(C)c1 (centres unmarked) [Compound 83] ; field requested: inhibition at 10 µM 103

And then COc1cc(C)c(S(=O)(=O)N2CCCCC2CCOCC(=O)N2CCC(c3cccc(F)c3)(N3CCN(C)CC3)CC2)c(C)c1 (centres unmarked) [Compound 227] , what is it? 100

And then COc1cc(C)c(S(=O)(=O)N(C)CCOCC(=O)N2CCC(Cc3ccccc3)(N(C)C)CC2)c(C)c1 [Compound 63] , what is it? 102

And then Cc1cc(S(=O)(=O)N2CCCCC2CCC(=O)N2CCC(c3ccccc3)(N3CCN(C)CC3)CC2)c(C)cc1Cl (centres unmarked) [Compound 110] , what is it? 104

And then COc1cc(C)c(S(=O)(=O)N(C)CCOCC(=O)N2CCC(Cc3ccccc3)(N3CCN(C)CC3)C2)c(C)c1 (centres unmarked) [Compound 197] , what is it? 98

And then CN1CCN(C2(c3cccc(F)c3)CCN(C(=O)COCC3CCc4ccccc4N3S(=O)(=O)c3ccc(Cl)c(Cl)c3)CC2)CC1 (centres unmarked) [Compound 103] , what is it? 73

And then O=C(COCC1CCCN1S(=O)(=O)c1c(Cl)cc(Cl)cc1Cl)NC1CCC(Cc2ccccc2)(N2CCCC2)CC1 (centres unmarked) [Compound 156] , what is it? 76

And then O=C(CC1c2ccccc2CCN1S(=O)(=O)c1ccc(Cl)c(Cl)c1)NC1CCC(Cc2ccccc2)(N2CCCCCC2)CC1 (centres unmarked) [Compound 16] , what is it? 91

And then COc1cc(C)c(S(=O)(=O)N(C)CCOCC(=O)N2CCC(CCc3ccccc3)(N(C)C)CC2)c(C)c1 [Compound 48] , what is it? 102

And then Cc1cc(S(=O)(=O)N2CCCCC2CCC(=O)N(C)CCCC2CCC(c3ccccc3)(N3CCCC3)CC2)c(C)cc1Cl (centres unmarked) [Compound 136] , what is it? 99

And then Cc1cc(S(=O)(=O)N2CCCCC2CCC(=O)N(C)CCC2CCC(CCc3ccccc3)(N3CCCC3)CC2)c(C)cc1Cl (centres unmarked) [Compound 131] , what is it? 99

And then COc1cc(C)c(S(=O)(=O)N(C)CCOCC(=O)N(C)CC2CCC(CCc3ccccc3)(N3CCN(C)CC3)CC2)c(C)c1 (centres unmarked) [Compound 165] , what is it? 103

And then Cc1cc(S(=O)(=O)N2CCCCC2CCC(=O)N2CCC(CCc3ccccc3)(N3CCN(C)CC3)CC2)c(C)cc1Cl (centres unmarked) [Compound 122] , what is it? 105

And then COc1cc(C)c(S(=O)(=O)N2CCCC2COCC(=O)NC2CCC(c3ccccc3)(N3CCCC3)CC2)c(C)c1 (centres unmarked) [Compound 145] , what is it? 92
